target: human mGluR5 (Homo sapiens, UniProt P41594); assay: Experiment for receptor function of mGluR5 (Ca2+-dependent fluorescence, FLIPR, CHO-K1 cells stably expressing human mGluR5); details: L-glutamic acid 10 μM, Fluo-4 fluorescence
Sequence (P41594 21-1212): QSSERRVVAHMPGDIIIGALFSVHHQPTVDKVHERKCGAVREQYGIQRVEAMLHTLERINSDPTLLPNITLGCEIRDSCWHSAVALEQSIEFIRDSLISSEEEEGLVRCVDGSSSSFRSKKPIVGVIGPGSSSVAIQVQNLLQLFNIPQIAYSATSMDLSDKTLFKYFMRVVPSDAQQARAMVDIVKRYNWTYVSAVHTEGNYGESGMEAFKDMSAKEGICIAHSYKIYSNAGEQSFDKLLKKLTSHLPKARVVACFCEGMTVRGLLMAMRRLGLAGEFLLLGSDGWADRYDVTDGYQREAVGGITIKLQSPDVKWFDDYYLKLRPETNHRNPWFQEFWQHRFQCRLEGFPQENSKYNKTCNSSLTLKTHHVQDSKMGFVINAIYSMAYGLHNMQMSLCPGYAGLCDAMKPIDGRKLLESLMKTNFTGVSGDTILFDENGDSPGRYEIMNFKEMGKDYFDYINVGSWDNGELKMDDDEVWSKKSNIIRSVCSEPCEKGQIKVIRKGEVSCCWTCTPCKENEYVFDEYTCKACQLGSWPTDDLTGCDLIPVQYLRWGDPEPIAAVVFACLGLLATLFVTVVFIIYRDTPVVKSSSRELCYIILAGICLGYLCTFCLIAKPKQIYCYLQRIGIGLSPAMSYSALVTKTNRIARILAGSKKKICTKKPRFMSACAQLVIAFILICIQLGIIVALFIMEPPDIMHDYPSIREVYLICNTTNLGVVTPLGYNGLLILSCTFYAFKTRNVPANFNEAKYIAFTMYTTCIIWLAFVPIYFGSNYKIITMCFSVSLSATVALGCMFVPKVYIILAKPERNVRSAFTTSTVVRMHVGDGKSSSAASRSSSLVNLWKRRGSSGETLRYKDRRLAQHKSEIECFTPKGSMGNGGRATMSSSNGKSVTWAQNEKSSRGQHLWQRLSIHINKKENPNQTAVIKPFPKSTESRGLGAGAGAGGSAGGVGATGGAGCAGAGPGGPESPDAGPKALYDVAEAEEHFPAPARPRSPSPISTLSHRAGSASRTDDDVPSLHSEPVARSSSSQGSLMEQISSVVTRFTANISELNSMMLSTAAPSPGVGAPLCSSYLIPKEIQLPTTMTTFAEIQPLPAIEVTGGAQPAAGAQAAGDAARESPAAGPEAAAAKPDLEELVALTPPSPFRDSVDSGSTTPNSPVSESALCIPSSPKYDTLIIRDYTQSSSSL
pIC50: −log10 of the molar value. Counter-ions that a name gives are not always drawn.
Readout name: pIC50

Below, 2 molecules whose answers are already recorded.
# Molecule, pIC50
records = [
    ("Cc1ccc(COc2cc(-c3cccnc3)c3c(n2)CCCC3)nc1", 6.95),
    ("c1ccc(COc2cc(-c3cccnc3)c3c(n2)CCCC3)nc1", 6.82),
]

[A] Clc1ncncc1-c1cc(OCc2ccccn2)nc2c1CCCC2 [Example 176, hydrochloride]
[B] N#Cc1ccc(COc2cc(-c3cnc(N)nc3)c3c(n2)CCC3)cc1
Q) Out of A and B , name the one with the higher pIC50. Response format: the label of the selected entry.
A) A

[A] CNc1cncc(-c2cc(OCc3ccccn3)nc3c2CCCC3)c1
[B] Fc1cncc(-c2cc(OCc3ccccn3)nc3c2CCCC3)n1 [Example 199, hydrochloride]
Q) Which record would sort first by descending pIC50, A or B ? Answer with the label corresponding to your selection.
A) B
(B: 7.61, A: 7.34)

[a] N#Cc1cncc(-c2cc(OCc3ccccn3)nc3c2CCCC3)c1 [Example 113, hydrochloride]
[b] FC(F)(F)c1cccc(COc2cc(-c3cncnc3)c3c(n2)CCCC3)n1 [Example 154, hydrochloride]
Q) Looking at recorded values for pIC50, does a or b come in lower? Your answer should be the label attached to the chosen record.
A) b
(b: 6.55, a: 7.16)

[1] Cn1nccc1-c1cc(OCc2ccc(C#N)cn2)nc2c1CCC2
[2] C=Cc1cccc(COc2cc(-c3cncnc3)c3c(n2)CCCC3)n1
[3] c1ncc(-c2cc(OCc3ncco3)nc3c2CCCC3)cn1
Q) Sort these molecules on pIC50 so the largest reading comes first. Enter labels, ranked according to the request.
A) 3, 1, 2
(3: 7.42, 1: 7.21, 2: 6.44)

* * *

biological target: human mGluR5 (Homo sapiens, UniProt P41594); test: Experiment for receptor function of mGluR5 (Ca2+-dependent fluorescence, FLIPR, CHO-K1 cells stably expressing human mGluR5); settings: L-glutamic acid 10 μM, Fluo-4 fluorescence
pIC50: −log10 of the molar value. Structures can show the parent of a compound that is named as a salt.
Readout name: pIC50

Field: example entries. Status: answers known.
# Molecule, Quantitative result
measured = [
    ("N#Cc1cccc(COc2cc(-c3ccnc(F)c3)c3c(n2)CCC3)c1", 7.03),
    ("Cc1ncc(-c2cc(OCc3ccc(F)cc3)nc3c2CCC3)cn1", 7.10),
]

[a] Cc1cccc(COc2cc(-c3cncnc3)c3c(n2)CCCC3)n1
[b] Cc1ncc(-c2cc(OCc3cccc(C#N)n3)nc3c2CCCC3)cn1
Q) Select one: a or b . Criterion: greater recorded pIC50. Label of pick, please.
A) a

[1] Cc1ccnc(COc2cc(-c3cccnc3)c3c(n2)CCCC3)c1
[2] Fc1ncccc1-c1cc(OCc2ccccn2)nc2c1CCC2 [Example 2, hydrochloride]
Q) Field: entry with larger pIC50 (options 1 / 2 ). Output the label that corresponds to your choice.
A) 2
(2: 8.28, 1: 6.75)

[I] Fc1ccnc(COc2cc(-c3cncnc3)c3c(n2)CCCC3)c1
[II] N#Cc1ncc(-c2cc(OCc3ccc(F)cn3)nc3c2CCC3)cn1
Q) In terms of reported pIC50, does I or II have the smaller number? Provide the label of your selected option as the answer.
A) I

[P] Clc1cncc(-c2cc(OCc3ccccn3)nc3c2CCCC3)n1
[Q] c1cnc(COc2cc(-c3cccnc3)c3c(n2)CCCC3)nc1
[R] Fc1ccnc(-c2cc(OCc3ccccn3)nc3c2CCCC3)c1
Q) Highest pIC50 first, then in falling order down to the smallest. List labels; respect the requested ordering.
A) P, R, Q

* * *

Target: UniProt:P41594
Assay: Experiment for receptor function of mGluR5 (Ca2+-dependent fluorescence, FLIPR, CHO-K1 cells stably expressing human mGluR5)
Conditions: L-glutamic acid 10 μM, Fluo-4 fluorescence
From the text: Stable expression cells in which the human mGluR5 gene had been introduced into a Chinese hamster ovary cell (CHO-K1) were used for evaluation. […] Subsequently, the cells were washed twice with an HBSS buffer solution, to which was subsequently added the same buffer solution. Twenty minutes thereafter, the plate was transferred into a fluorescence screening system (FLIPR TETRA, available from Molecular Devices, LLC) and measured for a Ca^2+-dependent fluorescence change in the cells. […]
Readout name: IC50 (µM)

# Entry smiles, IC50 (µM)
rows = [
    ("Fc1ccc(COc2cc(-c3cncnc3)c3c(n2)CCC3)cc1", 0.0635),
]

[P] Cc1cccc(COc2cc(-c3cccnc3)c3c(n2)CCCC3)n1
[Q] Fc1ccc(COc2cc(-c3cncnc3)c3c(n2)CCC3)nc1
[R] Fc1ccc(COc2cc(-c3cncnc3)c3c(n2)CCC3)c(F)c1
Q) Ascending by IC50, please. Please respond with the labels ordered as the question requires.
A) P, Q, R

* * *

target: human mGluR5 (Homo sapiens); test: Experiment for receptor function of mGluR5 (Ca2+-dependent fluorescence, FLIPR, CHO-K1 cells stably expressing human mGluR5); settings: L-glutamic acid 10 μM, Fluo-4 fluorescence
Structures can show the parent of a compound that is named as a salt.
Readout name: IC50 (nM)

[P] Nc1cnc(-c2cc(OCc3ccccn3)nc3c2CCCC3)cn1
[Q] Cc1cc(COc2cc(-c3cnc(C)nc3)c3c(n2)CCC3)ccn1
[R] Cc1ncc(-c2cc(OCc3ccnc(C#N)c3)nc3c2CCCC3)cn1
[S] Nc1cncc(-c2cc(OCc3ccccn3)nc3c2CCCC3)c1
Q) Hi! Can you put these in order of IC50, lowest number first? Put the labels in the order asked and list them.
A) S, Q, R, P

[P] COc1cncc(-c2cc(OCc3ccccn3)nc3c2CCCC3)n1 [Example 205, hydrochloride]
[Q] N#Cc1ccc(COc2cc(-c3cncc(CO)c3)c3c(n2)CCCC3)nc1
Q) // which entry reports the smaller IC50, P or Q ? Your answer should be the label attached to the chosen record.
A) Q
(Q: 28 nM, P: 93 nM)

[A] Fc1ccc(F)c(COc2cc(-c3cncnc3)c3c(n2)CCCC3)n1
[B] N#Cc1cccc(COc2cc(-c3cccnc3)c3c(n2)CCC3)c1
[C] CN(C)C(=O)c1cncc(-c2cc(OCc3ccccn3)nc3c2CCCC3)c1 [Example 120, hydrochloride]
Q) Sort the compounds on IC50; start with the lowest figure. As an answer, provide the labels arranged in the order called for.
A) A, B, C
(A: 22 nM, B: 39 nM, C: 206 nM)

[P] N#Cc1ccc(COc2cc(-c3cncc(CO)c3)c3c(n2)CCC3)cc1
[Q] CC(=O)c1cncc(-c2cc(OCc3ccccn3)nc3c2CCCC3)c1 [Example 115, dihydrochloride]
Q) I would appreciate it if you could say which entry, P or Q , has the lower IC50 value. Returns: label corresponding to the selected item.
A) P
(P: 52 nM, Q: 98.7 nM)

[I] Cc1ncc(-c2cc(OCc3ccc(C#N)cc3)nc3c2CCC3)cn1
[II] CCc1cncc(-c2cc(OCc3ccccn3)nc3c2CCCC3)n1
Q) Could you determine which record has the numerically smaller IC50? Candidates: I and II Please identify the chosen entry by its label.
A) II

[P] N#Cc1ccc(COc2cc(-c3cncnc3)c3c(n2)CCCC3)nc1
[Q] c1ccc(COc2cc(-c3cnccn3)c3c(n2)CCC3)nc1 [Example 53, hydrochloride]
Q) Larger number for IC50: P , or Q ? Write down the label attached to your selection.
A) P
(P: 63 nM, Q: 11.4 nM)

[1] N#Cc1ncc(-c2cc(OCc3cccc(F)n3)nc3c2CCC3)cn1
[2] Cc1ccc(-c2cc(OCc3ccccn3)nc3c2CCC3)cc1F
Q) Field: entry with larger IC50 (options 1 / 2 ). Write down the label attached to your selection.
A) 2

[I] Fc1cccnc1COc1cc(-c2cncnc2)c2c(n1)CCC2
[II] Cc1coc(COc2cc(-c3cccnc3)c3c(n2)CCCC3)n1
Q) # compare IC50 for I vs II ; return the one with the smaller value // output: label of the selected item
A) II

* * *

Target: human mGluR5 (Homo sapiens)
Test: Experiment for receptor function of mGluR5 (Ca2+-dependent fluorescence, FLIPR, CHO-K1 cells stably expressing human mGluR5)
Conditions: L-glutamic acid 10 μM, Fluo-4 fluorescence
From the text: Stable expression cells in which the human mGluR5 gene had been introduced into a Chinese hamster ovary cell (CHO-K1) were used for evaluation. […] Subsequently, the cells were washed twice with an HBSS buffer solution, to which was subsequently added the same buffer solution. Twenty minutes thereafter, the plate was transferred into a fluorescence screening system (FLIPR TETRA, available from Molecular Devices, LLC) and measured for a Ca^2+-dependent fluorescence change in the cells. […]
Structures can show the parent of a compound that is named as a salt.
Readout name: IC50 (nM)

Worked examples follow.
# Compound, Quantitative result
rows = [
    ("c1ncc(-c2cc(OCc3nccs3)nc3c2CCCC3)cn1", 27.9),
    ("Fc1cc(-c2cc(OCc3ccccn3)nc3c2CCC3)ccn1", 16.2),
    ("COCc1cncc(-c2cc(OCc3ccccn3)nc3c2CCCC3)c1 [Example 123, hydrochloride]", 58.8),
]

[a] N#Cc1ccc(COc2cc(-c3cccnn3)c3c(n2)CCC3)nc1
[b] [O-][n+]1cncc(-c2cc(OCc3ccccn3)nc3c2CCCC3)c1
Q) Which record shows the lower IC50: the first, a , or the second, b ? Answer with the label corresponding to your selection.
A) a
